B1: DYRK1B (parent)
chain: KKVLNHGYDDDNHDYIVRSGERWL

- Variants of: B1
- assay_details: protein stability index of a GFP-peptide fusion (GPS, HEK-293T) (PSI 1-6); higher = more stable;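 note: lentivirally expressed fusions sorted by FACS into six bins by GFP to DsRed ratio, PSI derived from sequencing read proportions per bin multiplied by bin number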
- condition_set: c terminus: a fixed tail appended
// false (0) strictly below 3 in protein stability index; true (1) otherwise

construct_sequence: KKVLNHGYDDDNHDYIVRSGERVL [W23V]
assigned_label: true (1)

construct_sequence: KPVLNHGYDDDNHDYIVRSGERWL [K2P]
assigned_label: true (1)

construct_sequence: KKVQNHGYDDDNHDYIVRSGERWL [L4Q]
assigned_label: true (1)

construct_sequence: KKVLNHFYDDDNHDYIVRSGERWL [G7F]
assigned_label: false (0)

construct_sequence: KKVLNFGYDDDNHDYIVRSGERWL [H6F]
assigned_label: false (0)

construct_sequence: KKVLNHGYDDDNHDIIVRSGERWL [Y15I]
assigned_label: true (1)

construct_sequence: KKVLNHGYDDDNHDYIVRSGVRWL [E21V]
assigned_label: false (0)

construct_sequence: KYVLNHGYDDDNHDYIVRSGERWL [K2Y]
assigned_label: false (0)

construct_sequence: KKVLNHDYDDDNHDYIVRSGERWL [G7D]
assigned_label: true (1)

construct_sequence: KKVLNHGYDDDNHDYIVRSKERWL [G20K]
assigned_label: true (1)

construct_sequence: KKVLNHGYDDDNHDYIVRSGERAL [W23A]
assigned_label: true (1)

construct_sequence: KKVLNHQYDDDNHDYIVRSGERWL [G7Q]
assigned_label: true (1)

construct_sequence: KKVLNHGYDDDNHDYIVRSGERML [W23M]
assigned_label: true (1)

construct_sequence: KKVLNHGYDPDNHDYIVRSGERWL [D10P]
assigned_label: false (0)

construct_sequence: KKVLNHGYDGDNHDYIVRSGERWL [D10G]
assigned_label: true (1)

construct_sequence: KKVLNHGYDDDNHDYIVRSGTRWL [E21T]
assigned_label: false (0)

construct_sequence: KKVLNHGMDDDNHDYIVRSGERWL [Y8M]
assigned_label: true (1)

construct_sequence: KKVLNHGYDDDCHDYIVRSGERWL [N12C]
assigned_label: false (0)

construct_sequence: KKVLNHGYDDDNHDYIVRSGERHL [W23H]
assigned_label: true (1)

Reference source for all entries: the supplement of paper PMC10567573
